Kindly supply the reported pIC50 values for the records listed here.
Target: recombinant human NaV1.8 stably transfected HEK cells (Homo sapiens, UniProt Q9Y5Y9)
Construct: expressed in transfected cells; host or cells: HEK cells, stably transfected
Sequence (Q9Y5Y9 whole entry): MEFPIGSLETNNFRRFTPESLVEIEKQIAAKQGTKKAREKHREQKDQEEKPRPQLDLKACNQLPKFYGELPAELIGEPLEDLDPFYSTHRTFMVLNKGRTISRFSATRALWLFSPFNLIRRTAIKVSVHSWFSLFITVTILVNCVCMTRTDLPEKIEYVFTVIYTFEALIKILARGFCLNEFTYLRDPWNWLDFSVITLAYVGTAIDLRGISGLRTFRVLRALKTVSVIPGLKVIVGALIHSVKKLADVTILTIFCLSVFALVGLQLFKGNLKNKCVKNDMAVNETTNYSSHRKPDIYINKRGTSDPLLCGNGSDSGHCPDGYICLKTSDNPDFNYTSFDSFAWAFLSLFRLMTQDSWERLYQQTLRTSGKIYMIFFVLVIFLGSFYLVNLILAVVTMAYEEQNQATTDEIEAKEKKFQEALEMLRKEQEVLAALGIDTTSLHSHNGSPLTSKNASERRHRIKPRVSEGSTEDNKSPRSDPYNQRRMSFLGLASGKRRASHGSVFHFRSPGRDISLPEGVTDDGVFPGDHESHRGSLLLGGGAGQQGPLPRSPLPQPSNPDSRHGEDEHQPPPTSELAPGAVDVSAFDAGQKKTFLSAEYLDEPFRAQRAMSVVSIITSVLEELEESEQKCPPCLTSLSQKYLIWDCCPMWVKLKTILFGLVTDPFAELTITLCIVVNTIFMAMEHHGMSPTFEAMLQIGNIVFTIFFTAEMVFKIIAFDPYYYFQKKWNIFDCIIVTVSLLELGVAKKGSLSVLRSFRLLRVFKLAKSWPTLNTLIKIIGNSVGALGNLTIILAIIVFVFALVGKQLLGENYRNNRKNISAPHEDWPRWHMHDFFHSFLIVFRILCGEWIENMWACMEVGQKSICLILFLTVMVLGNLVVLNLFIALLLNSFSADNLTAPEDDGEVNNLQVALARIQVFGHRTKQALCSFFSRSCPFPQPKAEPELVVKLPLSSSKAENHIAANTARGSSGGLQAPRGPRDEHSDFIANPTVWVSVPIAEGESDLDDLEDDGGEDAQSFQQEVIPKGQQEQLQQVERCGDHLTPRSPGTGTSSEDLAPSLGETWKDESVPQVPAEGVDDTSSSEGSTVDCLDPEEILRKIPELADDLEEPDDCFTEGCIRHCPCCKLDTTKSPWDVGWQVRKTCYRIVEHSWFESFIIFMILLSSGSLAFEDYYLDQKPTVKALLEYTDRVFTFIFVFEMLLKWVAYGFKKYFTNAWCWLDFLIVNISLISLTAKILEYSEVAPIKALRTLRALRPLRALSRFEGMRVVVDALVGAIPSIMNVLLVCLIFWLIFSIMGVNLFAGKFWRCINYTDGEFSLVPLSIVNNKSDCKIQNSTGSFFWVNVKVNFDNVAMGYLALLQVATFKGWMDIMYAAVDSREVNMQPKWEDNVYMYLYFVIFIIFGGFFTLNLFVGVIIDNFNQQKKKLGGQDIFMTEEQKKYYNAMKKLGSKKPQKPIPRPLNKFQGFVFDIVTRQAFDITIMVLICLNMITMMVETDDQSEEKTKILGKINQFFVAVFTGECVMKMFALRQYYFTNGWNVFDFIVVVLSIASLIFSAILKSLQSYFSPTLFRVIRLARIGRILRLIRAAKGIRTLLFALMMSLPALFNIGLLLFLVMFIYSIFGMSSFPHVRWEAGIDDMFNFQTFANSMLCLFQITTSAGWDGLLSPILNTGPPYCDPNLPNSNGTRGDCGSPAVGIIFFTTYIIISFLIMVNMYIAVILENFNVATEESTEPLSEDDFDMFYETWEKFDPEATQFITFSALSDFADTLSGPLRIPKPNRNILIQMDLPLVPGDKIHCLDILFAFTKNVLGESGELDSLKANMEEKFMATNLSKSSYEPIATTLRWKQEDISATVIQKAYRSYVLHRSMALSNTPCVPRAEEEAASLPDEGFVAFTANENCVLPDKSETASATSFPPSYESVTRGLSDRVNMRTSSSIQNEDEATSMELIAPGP
Experiment: Compound profiling on NaV1.8, human NaV1.8 cell line, SyncroPatch384PE automated patch clamp assay (Example 102, first set of compounds, Table 16)
Format: cell-based
Conditions: resting state block (P1 measurement), human NaV1.8 HEK cells, Table 16 (first set of compounds), read-out: P1IC50
pIC50: −log10 of the molar value.

| COMPOUND | RECORDED_VALUE |
| --- | --- |
| Cc1ccc(Oc2ncc(C(F)(F)F)cc2C(=O)Nc2cccc(C(N)=O)c2)c(OC(F)F)n1 | 6.70 to 7.40 |
| COc1cc(C#N)ccc1Oc1nnc(-c2cncn2C)c(C)c1C(=O)Nc1cccc(S(C)(=N)=O)c1 (stereo not drawn) | 7.40 to 7.70 |
| COc1cc(C#N)ccc1Oc1ncc(C(F)(F)F)cc1C(=O)Nc1cccc(S(C)(=N)=O)c1 (stereo not drawn) | ≥ 7.70 |
| COc1cc(C#N)ccc1Oc1nnc(-c2ccccc2F)c(C)c1C(=O)Nc1cccc([S@](C)(=N)=O)c1 | 7.40 to 7.70 |

Quick one: give me pIC50 for each item below, same order please.
1. COc1c(Oc2ncc(C(F)(F)F)cc2C(=O)NC23CC(C(N)=O)(C2)C3)ccc(F)c1F
2. Cc1cccc(Cl)c1Oc1nnc(C(F)(F)F)c(C)c1C(=O)Nc1ccc(C(N)=O)cc1
3. COc1c(Oc2nnc(C(F)(F)F)c(C)c2C(=O)Nc2cccnc2)ccc(F)c1F
4. NC(=O)c1cccc(NC(=O)c2cc(C(F)(F)F)cnc2OC2CC(C(F)(F)F)C2)c1 (mixture of isomers)
5. NC(=O)c1cccc(NC(=O)c2cc(C(F)(F)F)cnc2OC2CC3C(C2)C3(F)F)c1 (stereo not drawn)

["6.30 to 6.70", "6.30 to 6.70", "≥ 7.70", "6.30 to 6.70", "6.30 to 6.70"]

Quick one: give me pIC50 for each item below, same order please.
1. CS(=O)(=O)c1cccc(NC(=O)c2cc(C(F)(F)F)cnc2Oc2cnc(Cl)c3ccccc23)c1
2. Cc1cc(F)ccc1Oc1nnc(C(F)(F)F)c(C)c1C(=O)Nc1ccnc(C(N)=O)c1

6.30 to 6.70
6.70 to 7.40

Quick one: give me pIC50 for each item below, same order please.
1. COc1cc(C#N)ccc1Oc1nnc(C(F)(F)F)c(C)c1C(=O)Nc1ccc(C(N)=O)nc1
2. Cc1cc(F)ccc1Oc1nnc(C(F)(F)F)c(C)c1C(=O)Nc1cccc(S(N)(=O)=O)c1
3. COc1c(Oc2nnc(C(F)(F)F)c(C)c2C(=O)Nc2ccn3nnnc3c2)ccc(F)c1F
4. Cc1c(C(F)(F)F)nnc(Oc2ccc(OC(F)(F)F)c(F)c2F)c1C(=O)Nc1cccc(S(C)(=N)=O)c1 (single isomer, unassigned) [Compound 1478]

1: 6.70 to 7.40; 2: ≥ 7.70; 3: ≥ 7.70; 4: ≥ 7.70

Cited source: patent US20240336574A1
